The origin of these recorded values is patent US8642647B2.

system: HepG2 cells; experiment: Measurement of cholesterol synthesis inhibitory ability; assay type: cell-based; conditions: 100 μM compound, 24 hours, HepG2 cells; content of cholesterol formed; lower value = stronger inhibition
Please respond with reported Cholesterol (100 μM) aver. for every item in the list.
The response must contain the number and no unit.

## Task For "Cl.N=C(N)NC(=NC1CCCCC1)NCc1ccc2c(c1)OCO2" , write its Cholesterol (100 μM) aver..
## Result 43.7

## Task For "CCCCCCc1ccc(N=C(NCc2ccc3c(c2)OCO3)NC(=N)N)cc1.Cl" , write its Cholesterol (100 μM) aver..
## Result 82.62

## Task For "COc1ccc(OC)c(N=C(NCc2ccc3c(c2)OCO3)NC(=N)N)c1.Cl" , write its Cholesterol (100 μM) aver..
## Result 58.53

## Task For "Cl.N=C(N)NC(=Nc1ccc2c(c1)Cc1ccccc1-2)NCc1ccc2c(c1)OCO2" , write its Cholesterol (100 μM) aver..
## Result 31.42

## Task For "CCc1cc(Cl)ccc1NC(=N)NC(=N)NCc1ccc2c(c1)OCO2.Cl" , write its Cholesterol (100 μM) aver..
## Result −1.48

###

tested on: HepG2 cells; test: Measurement of cholesterol synthesis inhibitory ability; assay type: cell-based; details: 100 μM compound, 24 hours, HepG2 cells; content of cholesterol formed; lower value = stronger inhibition
Counter-ions that a name gives are not always drawn.
Please respond with reported Cholesterol (100 μM) aver. for every item in the list.
The response must contain the number and no unit.

## Task For COCCN=C(NCc1ccc2c(c1)OCO2)NC(=N)N.Cl [Example 31] , write its Cholesterol (100 μM) aver..
## Result 84.45

## Task For CC(C)(C)c1ccc(N=C(NCc2ccc3c(c2)OCO3)NC(=N)N)cc1.Cl [Example 33] , write its Cholesterol (100 μM) aver..
## Result 20.42

## Task For Cl.N=C(N)NC(=NC12CC3CC(CC(C3)C1)C2)NCc1ccc2c(c1)OCO2 [Example 27] , write its Cholesterol (100 μM) aver..
## Result 64.82

## Task For Cl.N=C(N)NC(=NCc1ccc(Br)cc1)NCc1ccc2c(c1)OCO2 [Example 36] , write its Cholesterol (100 μM) aver..
## Result 25.31

## Task For Cl.N=C(N)NC(=Nc1ccc(F)cc1)NCc1ccc2c(c1)OCO2 [Example 14] , write its Cholesterol (100 μM) aver..
## Result 57.35

## Task For COCCOCCOCCN=C(NCc1ccc2c(c1)OCO2)NC(=N)N.Cl [Example 46] , write its Cholesterol (100 μM) aver..
## Result 90.31

## Task For CCCCCN=C(NCc1ccc2c(c1)OCO2)NC(=N)N.Cl [Example 40] , write its Cholesterol (100 μM) aver..
## Result 57.36

## Task For CCN=C(NCc1ccc2c(c1)OCO2)NC(=N)N.Cl [Example 1] , write its Cholesterol (100 μM) aver..
## Result 66.3

## Task For C=CCN=C(NCc1ccc2c(c1)OCO2)NC(=N)N [Example 18, hydrochloride] , write its Cholesterol (100 μM) aver..
## Result 40.31

## Task For Cl.N=C(N)NC(=Nc1ccc(Oc2ccccc2)cc1)NCc1ccc2c(c1)OCO2 [Example 30] , write its Cholesterol (100 μM) aver..
## Result 21.94
